- testSystem: CDK2/CyclinA (Homo sapiens (Human))
- assayDetails: CDK2/CyclinA kinase assay (Nanosyn, Caliper microfluidic)
- Assay type: biochemical
- conditionInfo: Table 2; read-out: CDK2/CycA IC50
just bin them by IC50: low bracket: < 1000 nM; middle bracket: ≥ 1000 nM and < 2000 nM; high bracket: ≥ 2000 nM

Past entries and their recorded results:
- compound: "CCC(C)CN1CCN(c2ccc(Nc3ncc4cc5n(c4n3)C3(CCCC3)CNC5=O)nc2)CC1 (centres unmarked) [FFF]"
  classAssignment: "middle bracket"
- compound: "CC(C)N1CCN(Cc2ccc(Nc3ncc4cc5n(c4n3)C3(CCCCC3)CNC5=O)nc2)CC1 [EE]"
  classAssignment: "middle bracket"
- compound: "C[C@H](O)CN1CCN(c2ccc(Nc3ncc4cc5n(c4n3)C3(CCCCC3)CNC5=O)nc2)C[C@@H]1C [C]"
  classAssignment: "low bracket"
- compound: "C[C@@H]1CN(c2ccc(Nc3ncc4cc5n(c4n3)C3(CCCCC3)CNC5=O)nc2)CCN1C [NN]"
  classAssignment: "middle bracket"
- compound: "CC(C)N1CCN(c2ccc(Nc3ncc4cc5n(c4n3)C3(CCCCC3)CNC5=O)nc2)CC1 [Compound GG]"
  classAssignment: "middle bracket"

Q: Consider CC1CCN(C2CCN(c3ccc(Nc4ncc5cc6n(c5n4)C4(CCCCC4)CNC6=O)nc3)CC2)C1 (centres unmarked) [K] . To which IC50 class does it belong?
Ans: low bracket

Q: Form: Item = CC(C)N1CCN(c2ccc(Nc3ncc4cc5n(c4n3)C3(CCCCC3)CNC5=O)nc2)C[C@@H]1C [AA] ; Class = ?
Ans: high bracket

Q: Record CC(C)N1CCN(c2ccc(Nc3ncc4cc5n(c4n3)C3(CCCCC3)CNC5=O)nc2)CC1C (centres unmarked) [PP] — which class?
Ans: high bracket

* * *

- testSystem: CDK2/CyclinE (Homo sapiens (Human))
- assayDetails: CDK2/CyclinE kinase assay (Nanosyn, Caliper microfluidic)
- Format: biochemical
- conditionInfo: Table 2; read-out: CDK2/CycE IC50
Below, each of the molecules is paired with its reported log10 IC50 value.
Use the decimal logarithm of IC50 (µM).

- molecule: "C[C@H](O)CN1CCN(c2ccc(Nc3ncc4cc5n(c4n3)C3(CCCCC3)CNC5=O)nc2)CC1"
  experimentalReadout: "log10 IC50"
  endpointResult: 0.80
- molecule: "CCC(C)[C@@H]1CNC(=O)c2cc3cnc(Nc4ccc(N5CCN(C)CC5)cn4)nc3n21 (stereo partly drawn)"
  experimentalReadout: "log10 IC50"
  endpointResult: 0.64
- molecule: "C[C@@H](O)CN1CCN(c2ccc(Nc3ncc4cc5n(c4n3)C3(CCCCC3)CNC5=O)nc2)CC1"
  experimentalReadout: "log10 IC50"
  endpointResult: 0.10
- molecule: "CC1CN(c2ccc(Nc3ncc4cc5n(c4n3)C3(CCCCC3)CNC5=O)nc2)CCN1CCC(C)(C)C (stereo not drawn)"
  experimentalReadout: "log10 IC50"
  endpointResult: 0.41
- molecule: "CC(C)N1CCN(Cc2ccc(Nc3ncc4cc5n(c4n3)C3(CCCCC3)CNC5=O)nc2)CC1"
  experimentalReadout: "log10 IC50"
  endpointResult: 0.22

Q: Entry under review: O=C1NCC2(CCCCC2)n2c1cc1cnc(Nc3ccc(N4CCC(N5CCOCC5)CC4)cn3)nc12 . Reported log10 IC50?
Ans: 0.16

Q: Look up log10 IC50: C[C@@H]1CN(c2ccc(Nc3ncc4cc5n(c4n3)C3(CCCC3)CNC5=O)nc2)C[C@H](C)N1
Ans: 0.97

Q: Request the reported log10 IC50 associated with CC1CN(c2ccc(Nc3ncc4cc5n(c4n3)C3(CCCC3)CNC5=O)nc2)CC(C)N1CCC(C)(C)C (stereo not drawn)
Ans: 1.22

Q: Suppose we examine the molecule CC(C)(C)CCN1CCN(c2ccc(Nc3ncc4cc5n(c4n3)C3(CCCC3)CNC5=O)nc2)CC1 ; what log10 IC50 value has been reported?
Ans: -0.54

Q: Can you look up the measured log10 IC50 of CCC(C)CN1[C@H](C)CN(c2ccc(Nc3ncc4cc5n(c4n3)C3(CCCC3)CNC5=O)nc2)C[C@@H]1C (stereo partly drawn) for me?
Ans: 0.72

Q: What value of log10 IC50 has been recorded for this entry: C[C@@H]1CN(c2ccc(Nc3ncc4cc5n(c4n3)C3(CCCCC3)CNC5=O)nc2)CCN1C
Ans: 0.67

Q: Which log10 IC50 is reported for this molecule? CC1CCN(C2CCN(c3ccc(Nc4ncc5cc6n(c5n4)C4(CCCCC4)CNC6=O)nc3)CC2)C1 (stereo not drawn)
Ans: 0.03

Q: Query (molecule): CC1(C)CN(c2ccc(Nc3ncc4cc5n(c4n3)C3(CCCCC3)CNC5=O)nc2)CCN1C1CC1 ; field requested: log10 IC50
Ans: 0.23

Q: Data request, read-out log10 IC50, for CC1CN(c2ccc(Nc3ncc4cc5n(c4n3)C3(CCCC3)CNC5=O)nc2)CCN1CC1CC1 (stereo not drawn)
Ans: 0.47

* * *

- testSystem: CDK2/CyclinE (Homo sapiens (Human))
- assayDetails: CDK2/CyclinE kinase assay (Nanosyn, Caliper microfluidic)
- Type: biochemical
- conditionInfo: Table 2; read-out: CDK2/CycE IC50
Measured pIC50 by item
# log scale: pIC50 equals minus log10 of the concentration in mol/L

Completed entries (count: 3):
- smilesStructure: "C[C@@H](O)CN1CCN(c2ccc(Nc3ncc4cc5n(c4n3)C3(CCCC3)CNC5=O)nc2)C[C@@H]1C"
  testSystem: "CDK2/CyclinE (Homo sapiens (Human))"
  endpointResult: 5.58
- smilesStructure: "CC1(C)CN(c2ccc(Nc3ncc4cc5n(c4n3)C3(CCCCC3)CNC5=O)nc2)CCN1"
  testSystem: "CDK2/CyclinE (Homo sapiens (Human))"
  endpointResult: 5.67
- smilesStructure: "C[C@@H]1CN(c2ccc(Nc3ncc4cc5n(c4n3)C3(CCCCC3)CNC5=O)nc2)C[C@H](C)N1"
  testSystem: "CDK2/CyclinE (Homo sapiens (Human))"
  endpointResult: 5.45

Q: I am curious: what pIC50 value has been reported for O=C1NCC2(CCCCC2)n2c1cc1cnc(Nc3ccc(N4CCC(N5CCCCC5)CC4)cn3)nc12 ?
Ans: 5.82

* * *

- testSystem: CDK2/CyclinE (Homo sapiens (Human))
- assayDetails: CDK2/CyclinE kinase assay (Nanosyn, Caliper microfluidic)
- Format: biochemical
- conditionInfo: Table 2
experimentalReadout: Fold Selectivity (CDK2/CycE/CDK4)
I'd appreciate a reply containing only the number, no unit.

- molecule: "C[C@H](O)CN1CCN(c2ccc(Nc3ncc4cc5n(c4n3)C3(CCCCC3)CNC5=O)nc2)CC1 [A]"
  testSystem: "CDK2/CyclinE (Homo sapiens (Human))"
  endpointResult: 1516
- molecule: "CC(C)N1CCN(C(=O)c2ccc(Nc3ncc4cc5n(c4n3)C3(CCCCC3)CNC5=O)nc2)CC1 [II]"
  testSystem: "CDK2/CyclinE (Homo sapiens (Human))"
  endpointResult: 184
- molecule: "C[C@H](O)CN1CCN(c2ccc(Nc3ncc4cc5n(c4n3)C3(CCCCC3)CNC5=O)nc2)C[C@@H]1C [C]"
  testSystem: "CDK2/CyclinE (Homo sapiens (Human))"
  endpointResult: 1333

# input for lookup
Q: Any idea what its Fold Selectivity (CDK2/CycE/CDK4) is? The molecule is CC(C)N1CCN(c2ccc(Nc3ncc4cc5n(c4n3)C3(CCCC3)CNC5=O)nn2)CC1 [RRR]
Ans: 1758

* * *

- assayDetails: Metabolic stability in liver microsomes
- Assay type: in vitro ADME, human, dog, rat, monkey, and mouse
- conditionInfo: Sprague-Dawley (rat), liver microsomes, pH 7.4; each of the species tested (human, monkey, dog, rat, mouse), 1 uM
experimentalReadout: half-life at 1 uM

Q: Recorded half-life at 1 uM for CC(=O)c1c(C)c2cnc(Nc3ccc(N4CCNCC4)cn3)nc2n(C2CCCC2)c1=O , please?
Ans: > 60 min

* * *

The entries below come with measured AUC values attached.
- assayDetails: Mouse pharmacokinetics (oral gavage / intravenous)
- Format: in vivo, mice
- conditionInfo: plasma; mouse, 30 mg/kg oral gavage

Q: State the recorded AUC for this entry: CC(C)N1CCN(c2ccc(Nc3ncc4cc5n(c4n3)C3(CCCCC3)CNC5=O)nc2)CC1
Ans: 1900 nM·h

Q: Which value of AUC has been reported for CN1CCN(c2ccc(Nc3ncc4cc5n(c4n3)C3(CCCCC3)CNC5=O)nc2)CC1 in the records?
Ans: 2900 nM·h

Q: If you can, please state the reported AUC value of O=C1NCC2(CCCCC2)n2c1cc1cnc(Nc3ccc(N4CCC(N5CCOCC5)CC4)cn3)nc12 .
Ans: 3300 nM·h

Q: Looking for the measured AUC of O=C1NCC2(CCCCC2)n2c1cc1cnc(Nc3ccc(N4CCNCC4)cn3)nc12 , can you help?
Ans: 150 nM·h

The origin of these recorded values is patent US9464092B2.
